So I've got a bunch of compounds here, and I need their Internal concentration values.
Tested on: Zebrafish wild-type (WT) embryos
assay.text: Absorption (internal concentration) of cephalosporins in zebrafish embryos by LC-MS/MS
measurement.conditions: zebrafish embryos exposed to 2 mM drug solution, 6 hpf-3 dpf
Form entry: value (mM × 10^-5) — number only.

The recorded Internal concentration for entry N[C@@H](C(=O)N[C@@H]1C(=O)N2C(C(=O)O)=C(Cl)CS[C@H]12)c1ccccc1 equals 9.49

The reported Internal concentration of the compound CC(C)(O/N=C(\C(=O)N[C@@H]1C(=O)N2C(C(=O)[O-])=C(C[n+]3ccccc3)CS[C@H]12)c1csc(N)n1)C(=O)O was 5.47

Lab book: Internal concentration of CO/N=C(\C(=O)N[C@@H]1C(=O)N2C(C(=O)O)=C(CSc3nc(C)c(CC(=O)O)s3)CS[C@H]12)c1csc(N)n1 noted as 3.47

Internal concentration for CO[C@@]1(NC(=O)Cc2cccs2)C(=O)N2C(C(=O)O)=C(COC(N)=O)CS[C@@H]21 is 18.39

For this compound ( CO[C@@]1(NC(=O)CSC(F)F)C(=O)N2C(C(=O)O)=C(CSc3nnnn3CCO)CO[C@@H]21 ), measured Internal concentration is 11.54

Lab note: Cc1nnc(SCC2=C(C(=O)O)N3C(=O)[C@@H](NC(=O)Cn4cnnn4)[C@H]3SC2)s1 gave Internal concentration of 14.19

Internal concentration measured on CC1=C(C(=O)O)N2C(=O)[C@@H](NC(=O)[C@H](N)c3ccc(O)cc3)[C@H]2SC1 = 12.55

What the record says about CC1=C(C(=O)O)N2C(=O)[C@@H](NC(=O)[C@H](N)C3=CCC=CC3)[C@H]2SC1 : Internal concentration is 19.89

According to the records, this compound CN(C)CCn1nnnc1SCC1=C(C(=O)O)N2C(=O)[C@@H](NC(=O)Cc3csc(N)n3)[C@H]2SC1 displays Internal concentration of 3.73

Memo: CC(=O)OCC1=C(C(=O)O)N2C(=O)[C@@H](NC(=O)CSC(=NC(C)C)NC(C)C)[C@H]2SC1 , reported Internal concentration: 1.63

Record CC1=C(C(=O)O)N2C(=O)[C@@H](NC(=O)[C@H](N)c3ccccc3)[C@H]2SC1 , field Internal concentration: 16.83

# compound CO/N=C(\C(=O)N[C@@H]1C(=O)N2C(C(=O)O)=C(CSc3nnnn3C)CS[C@H]12)c1csc(N)n1 ; its Internal concentration = 1.14

The recorded Internal concentration for entry CO/N=C(\C(=O)N[C@@H]1C(=O)N2C(C(=O)O)=C(COC(N)=O)CS[C@H]12)c1ccco1 equals 4.66

Summary for this compound, CO/N=C(\C(=O)N[C@@H]1C(=O)N2C(C(=O)O)=C(COC(C)=O)CS[C@H]12)c1csc(N)n1 : Internal concentration is 0.82

# Internal concentration (compound: CO/N=C(\C(=O)N[C@@H]1C(=O)N2C(C(=O)O)=CCS[C@H]12)c1csc(N)n1 ) is 13.15
